Test system: Liver
Assay: Unbound intrinsic clearance in human liver microsomes at 10 uM preincubated for 5 mins followed by NADPH addition measured after 60 mins by HPLC-UV-MS analysis
Type: ADME, microsome
Conditions: 1 h
Exercise: state measured CL free for each of the compounds provided.
Please give a number only; it is taken to be in mL/min/kg.

query: Suppose we examine the compound Cn1cc(-c2cc(C(N)=O)ccc2Oc2ccccc2)c2cc[nH]c2c1=O ; what CL free value has been reported?
result: 48.3

query: Which CL free is listed for Cn1cc(-c2ccccc2Oc2ccccc2)c2cc[nH]c2c1=O ?
result: 1670

query: Give its CL free value. Item: Cn1cc(-c2cc(NS(C)(=O)=O)ccc2OC2CCCCC2)c2cc[nH]c2c1=O
result: 450

query: Which CL free is listed for CCNC(=O)c1ccc(Oc2ccccc2)c(-c2cn(C)c(=O)c3[nH]ccc23)c1 ?
result: 68.3

query: Please report the recorded CL free for CC(=O)Nc1ccc(Oc2ccccc2)c(-c2cn(C)c(=O)c3[nH]ccc23)c1 .
result: 113

query: Recorded CL free of Cn1cc(-c2cc(NS(C)(=O)=O)ccc2Oc2cccnc2)c2cc[nH]c2c1=O , please.
result: 86.7

query: Give its CL free value. Item: Cn1cc(-c2cc(S(C)(=O)=O)ccc2Oc2ccccc2)c2cc[nH]c2c1=O
result: 91.7

====

Kindly supply the reported pKi values for the records listed here.
Target: Bromodomain-containing protein 4 (Homo sapiens, UniProt O60885)
Assay: Binding affinity to human N-terminal His6-tagged BRD4 BD1-BD2 (K57 to K550 residues) after 1 hr using alexa-647 conjugated probe by TR-FRET assay
Conceptually, pKi converts a concentration in mol/L into minus its log10.

query: # input molecule: Cn1cc(-c2ccccc2Oc2ccccc2)c2cc[nH]c2c1=O ; wanted: its pKi
result: 7.32

query: I would be grateful if you could share the reported pKi for Cn1cc(-c2cc(NS(C)(=O)=O)ccc2Oc2ccc(F)cc2F)c2cc[nH]c2c1=O .
result: 8.35

query: Need pKi of Cc1cc(-c2ccccc2Oc2ccccc2)c[nH]c1=O , thanks.
result: 5.77

query: Quick one: pKi of Cn1cc(-c2cc(S(C)(=O)=O)ccc2Oc2ccccc2)c2cc[nH]c2c1=O ?
result: 8.24

query: // pKi lookup, key: CCS(=O)(=O)Nc1ccc(Oc2ccccc2)c(-c2cn(C)c(=O)c3[nH]ccc23)c1
result: 8.82

query: Find the recorded pKi belonging to CCS(=O)(=O)Nc1ccc(Oc2ccc(C(F)(F)F)cc2)c(-c2cn(C)c(=O)c3[nH]ccc23)c1 and report it.
result: 8.05

query: Which value of pKi has been reported for Cn1cc(-c2cc(NS(=O)(=O)CC(F)(F)F)ccc2Oc2ccccc2)c2cc[nH]c2c1=O in the records?
result: 8.36

query: // query pKi value for entry Cn1cc(-c2cc(NS(C)(=O)=O)ccc2OC2CCC(F)(F)CC2)c2cc[nH]c2c1=O
result: 7.72

query: I'd like to know its pKi. The molecule in question is Cn1cc(-c2cc(NS(C)(=O)=O)ccc2Oc2ccc(F)cc2Cl)c2cc[nH]c2c1=O
result: 8.51

query: Name the reported pKi value associated with the molecule CCS(=O)(=O)Nc1ccc(OC2CCC(N(C)C)CC2)c(-c2cn(C)c(=O)c3[nH]ccc23)c1 (configuration not stated)
result: 7.59

query: I am curious: what pKi value has been reported for CC(=O)Nc1ccc(Oc2ccccc2)c(-c2cn(C)c(=O)c3[nH]ccc23)c1 ?
result: 8.01

query: Need pKi of Cn1cc(-c2cc(NS(C)(=O)=O)ccc2Oc2cccnc2)c2cc[nH]c2c1=O , thanks.
result: 8.20

query: Given the molecule Cn1cc(-c2cc(NS(C)(=O)=O)ccc2Oc2ccccc2)c2cc[nH]c2c1=O , what is its reported pKi?
result: 8.62

query: Given CCS(=O)(=O)Nc1ccc(OCC(C)(C)C)c(-c2cn(C)c(=O)c3[nH]ccc23)c1 , state its recorded pKi.
result: 7.42

query: Query (molecule): Cn1cc(-c2cc(NS(C)(=O)=O)ccc2OC2CCCCC2)c2cc[nH]c2c1=O ; field requested: pKi
result: 8.43

query: Suppose we examine the molecule Cn1cc(-c2cc(C(N)=O)ccc2Oc2ccccc2)c2cc[nH]c2c1=O ; what pKi value has been reported?
result: 7.85

query: Value lookup for pKi; key = CCS(=O)(=O)Nc1ccc(Oc2cncnc2)c(-c2cn(C)c(=O)c3[nH]ccc23)c1
result: 7.49

====

System: Liver
Assay: Unbound intrinsic clearance in human liver microsomes at 10 uM preincubated for 5 mins followed by NADPH addition measured after 60 mins by HPLC-UV-MS analysis
Format: ADME, microsome
Conditions: 1 h
MEASURED_ATTRIBUTE: CL free

query: Report CL free for Cn1cc(-c2cc(NS(C)(=O)=O)ccc2OC2CCOCC2)c2cc[nH]c2c1=O please.
result: < 30 mL/min/kg

query: Using the record for CCS(=O)(=O)Nc1ccc(Oc2ccc(Cl)cc2)c(-c2cn(C)c(=O)c3[nH]ccc23)c1 , report its CL free.
result: < 96.7 mL/min/kg

query: Any idea what CL free was measured for Cn1cc(-c2cc(S(N)(=O)=O)ccc2Oc2ccccc2)c2cc[nH]c2c1=O ?
result: < 43.3 mL/min/kg

query: Bench note: what CL free did CCS(=O)(=O)Nc1ccc(Oc2ccccc2)c(-c2cn(C)c(=O)c3[nH]ccc23)c1 show?
result: < 45 mL/min/kg

query: Form field: reported CL free of CCS(=O)(=O)Nc1ccc(OC2CCC(N(C)C)CC2)c(-c2cn(C)c(=O)c3[nH]ccc23)c1 (stereo unspecified)
result: < 26.7 mL/min/kg

query: # lookup: CL free of CCS(=O)(=O)Nc1ccc(Oc2cncnc2)c(-c2cn(C)c(=O)c3[nH]ccc23)c1
result: < 33.3 mL/min/kg
